Target: Peroxisome proliferator-activated receptor gamma (Homo sapiens, UniProt P37231)
Sequence (P37231 whole entry, the tested form may be a part): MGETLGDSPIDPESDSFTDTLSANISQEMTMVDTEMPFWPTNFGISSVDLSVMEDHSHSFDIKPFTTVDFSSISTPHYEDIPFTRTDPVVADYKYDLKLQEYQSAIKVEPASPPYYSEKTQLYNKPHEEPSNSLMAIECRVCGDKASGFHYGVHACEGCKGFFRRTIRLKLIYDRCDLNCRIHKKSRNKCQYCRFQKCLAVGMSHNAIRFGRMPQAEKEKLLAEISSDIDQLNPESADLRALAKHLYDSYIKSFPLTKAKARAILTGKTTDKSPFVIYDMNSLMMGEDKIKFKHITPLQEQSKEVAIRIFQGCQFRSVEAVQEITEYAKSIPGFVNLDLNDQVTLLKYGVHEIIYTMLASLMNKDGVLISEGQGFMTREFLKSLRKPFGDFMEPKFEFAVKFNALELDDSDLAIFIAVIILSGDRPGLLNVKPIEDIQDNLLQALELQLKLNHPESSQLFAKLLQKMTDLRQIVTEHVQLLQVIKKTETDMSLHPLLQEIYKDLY
Test: Agonist activity at human PPARgamma ligand binding domain expressed in human HepG2 cells co-transfected with Gal4 by luciferase reporter gene assay
EXPERIMENTAL_ENDPOINT: log10(EC50) (log10 of the value in µM)
Heads up, the numbers here are log10 of EC50 in µM units.

Asked: Record lookup: for Peroxisome proliferator-activated receptor gamma (Homo sapiens, UniProt P37231), what log10(EC50) belongs to O=C(O)C(Cc1ccccc1Cl)Oc1ccc(Cl)cc1 (racemic) ?
Given back: 0.35

Asked: Record lookup: for Peroxisome proliferator-activated receptor gamma (Homo sapiens, UniProt P37231), what log10(EC50) belongs to CCCc1ccc(CC(Oc2ccc(Cl)cc2)C(=O)O)cc1 (stereo not drawn) ?
Given back: 0.14

Asked: Record lookup: for Peroxisome proliferator-activated receptor gamma (Homo sapiens, UniProt P37231), what log10(EC50) belongs to CCCc1ccccc1CC(Oc1ccc(Cl)cc1)C(=O)O (stereo not drawn) ?
Given back: 0.57

Asked: Record lookup: for Peroxisome proliferator-activated receptor gamma (Homo sapiens, UniProt P37231), what log10(EC50) belongs to O=C(O)C(Cc1ccc(Br)cc1)Oc1ccc(Cl)cc1 (racemic) ?
Given back: 0.32

Asked: Record lookup: for Peroxisome proliferator-activated receptor gamma (Homo sapiens, UniProt P37231), what log10(EC50) belongs to Cc1ccc(CC(Oc2ccc(Cl)cc2)C(=O)O)cc1 (racemic) ?
Given back: 0.64

Asked: Record lookup: for Peroxisome proliferator-activated receptor gamma (Homo sapiens, UniProt P37231), what log10(EC50) belongs to Cc1ccccc1CC(Oc1ccc(Cl)cc1)C(=O)O (racemic) ?
Given back: 0.93

Asked: Record lookup: for Peroxisome proliferator-activated receptor gamma (Homo sapiens, UniProt P37231), what log10(EC50) belongs to `O=C(O)[C@H](Cc1ccc(-c2ccccc2)cc1)Oc1ccc(Cl)cc1` ?
Given back: 0.05

Asked: Record lookup: for Peroxisome proliferator-activated receptor gamma (Homo sapiens, UniProt P37231), what log10(EC50) belongs to `O=C(O)[C@H](Cc1ccccc1)Oc1ccc(Cl)cc1` ?
Given back: 0.90

Asked: Record lookup: for Peroxisome proliferator-activated receptor gamma (Homo sapiens, UniProt P37231), what log10(EC50) belongs to O=C(O)C(Cc1ccccc1)Oc1ccc(Cl)c(Cl)c1 (racemic) ?
Given back: 0.41

Asked: Record lookup: for Peroxisome proliferator-activated receptor gamma (Homo sapiens, UniProt P37231), what log10(EC50) belongs to `O=C(O)[C@H](Cc1ccc(Oc2ccccc2)cc1)Oc1ccc(Cl)cc1` ?
Given back: -0.06

Asked: Record lookup: for Peroxisome proliferator-activated receptor gamma (Homo sapiens, UniProt P37231), what log10(EC50) belongs to `O=C(O)[C@H](Cc1ccc(C(F)(F)F)cc1)Oc1ccc(Cl)cc1` ?
Given back: 0.56

Asked: Record lookup: for Peroxisome proliferator-activated receptor gamma (Homo sapiens, UniProt P37231), what log10(EC50) belongs to O=C(O)C(Cc1ccccc1C(F)(F)F)Oc1ccc(Cl)cc1 (racemic) ?
Given back: 0.61

Asked: Record lookup: for Peroxisome proliferator-activated receptor gamma (Homo sapiens, UniProt P37231), what log10(EC50) belongs to O=C(O)C(Cc1cccc(Oc2ccccc2)c1)Oc1ccc(Cl)cc1 (racemic) ?
Given back: 0.49

Asked: Record lookup: for Peroxisome proliferator-activated receptor gamma (Homo sapiens, UniProt P37231), what log10(EC50) belongs to `O=C(O)[C@H](Cc1ccc(-c2cccs2)cc1)Oc1ccc(Cl)cc1` ?
Given back: -0.23

Asked: Record lookup: for Peroxisome proliferator-activated receptor gamma (Homo sapiens, UniProt P37231), what log10(EC50) belongs to O=C(O)C(Cc1ccc(Cl)cc1)Oc1ccc(Cl)cc1 (racemic) ?
Given back: 0.50

Asked: Record lookup: for Peroxisome proliferator-activated receptor gamma (Homo sapiens, UniProt P37231), what log10(EC50) belongs to O=C(O)C(Cc1ccccc1Br)Oc1ccc(Cl)cc1 (racemic) ?
Given back: 0.39

Asked: Record lookup: for Peroxisome proliferator-activated receptor gamma (Homo sapiens, UniProt P37231), what log10(EC50) belongs to O=C(O)C(Cc1ccc(Oc2ccccc2)cc1)Oc1ccc(Cl)cc1 (racemic) ?
Given back: 0.03

Asked: Record lookup: for Peroxisome proliferator-activated receptor gamma (Homo sapiens, UniProt P37231), what log10(EC50) belongs to `O=C(O)[C@@H](Cc1ccc(Oc2ccccc2)cc1)Oc1ccc(Cl)cc1` ?
Given back: 1.05

###

Provide the recorded log10(EC50) for the entries that follow.
Biological target: Peroxisome proliferator-activated receptor alpha (Homo sapiens)
Test: Agonist activity at human PPARalpha ligand binding domain expressed in human HepG2 cells co-transfected with Gal4 by luciferase reporter gene assay
Heads up, the numbers here are log10 of EC50 in µM units.

Asked: Look up log10(EC50) for this compound: O=C(O)C(Cc1ccccc1Oc1ccccc1)Oc1ccc(Cl)cc1 (racemic)
Given back: 0.06

Asked: Look up log10(EC50) for this compound: O=C(O)C(Cc1cccc(Oc2ccccc2)c1)Oc1ccc(Cl)cc1 (racemic)
Given back: -0.62

Asked: Look up log10(EC50) for this compound: `O=C(O)[C@H](Cc1ccc(Oc2ccccc2)cc1)Oc1ccc(Cl)cc1`
Given back: -1.57

Asked: Look up log10(EC50) for this compound: O=C(O)C(Cc1ccccc1C(F)(F)F)Oc1ccc(Cl)cc1 (racemic)
Given back: 0.40

Asked: Look up log10(EC50) for this compound: Cc1ccccc1CC(Oc1ccc(Cl)cc1)C(=O)O (racemic)
Given back: 0.97

###

Provide the recorded EC50 for the entries that follow.
Biological target: Peroxisome proliferator-activated receptor alpha (Homo sapiens, UniProt Q07869)
Sequence (Q07869 whole entry, the tested form may be a part): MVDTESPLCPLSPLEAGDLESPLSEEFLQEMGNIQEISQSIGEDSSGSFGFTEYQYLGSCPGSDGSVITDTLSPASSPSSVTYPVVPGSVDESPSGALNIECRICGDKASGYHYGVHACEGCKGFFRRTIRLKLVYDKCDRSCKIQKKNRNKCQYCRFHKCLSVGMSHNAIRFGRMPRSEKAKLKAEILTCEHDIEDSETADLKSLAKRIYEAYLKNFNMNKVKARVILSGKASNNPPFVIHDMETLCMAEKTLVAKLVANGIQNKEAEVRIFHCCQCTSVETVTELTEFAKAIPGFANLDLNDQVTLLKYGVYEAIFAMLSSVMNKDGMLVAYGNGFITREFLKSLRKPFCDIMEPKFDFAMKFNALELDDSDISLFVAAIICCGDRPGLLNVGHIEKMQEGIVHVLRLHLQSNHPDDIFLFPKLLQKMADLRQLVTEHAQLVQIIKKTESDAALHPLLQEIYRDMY
Test: Agonist activity at human PPARalpha ligand binding domain expressed in human HepG2 cells co-transfected with Gal4 by luciferase reporter gene assay
Number only, in nM; omit the unit.

Asked: Look up EC50 for this molecule: O=C(O)C(Cc1ccc(Cl)cc1)Oc1ccc(Cl)cc1 (racemic)
Given back: 2230

Asked: Look up EC50 for this molecule: `O=C(O)[C@H](Cc1ccccc1)Oc1ccc(Cl)cc1`
Given back: 14500

Asked: Look up EC50 for this molecule: O=C(O)C(Cc1ccccc1)Oc1ccc(Cl)c(Cl)c1 (racemic)
Given back: 4490

Asked: Look up EC50 for this molecule: `O=C(O)[C@H](Cc1ccc(C(F)(F)F)cc1)Oc1ccc(Cl)cc1`
Given back: 420

Asked: Look up EC50 for this molecule: O=C(O)C(Cc1ccccc1)Oc1ccc(Cl)cc1Cl (racemic)
Given back: 2120

Asked: Look up EC50 for this molecule: O=C(O)C(Cc1ccc(Br)cc1)Oc1ccc(Cl)cc1 (racemic)
Given back: 1100

Asked: Look up EC50 for this molecule: O=C(O)C(Cc1ccccc1)Oc1ccc(Cl)cc1Br (racemic)
Given back: 1650

Asked: Look up EC50 for this molecule: CCCc1ccc(CC(Oc2ccc(Cl)cc2)C(=O)O)cc1 (stereo unspecified)
Given back: 350

Asked: Look up EC50 for this molecule: O=C(O)C(Cc1ccc(Oc2ccccc2)cc1)Oc1ccc(Cl)cc1 (racemic)
Given back: 64

Asked: Look up EC50 for this molecule: O=C(O)C(Cc1ccccc1Br)Oc1ccc(Cl)cc1 (racemic)
Given back: 2250

Asked: Look up EC50 for this molecule: CCCc1ccccc1CC(Oc1ccc(Cl)cc1)C(=O)O (stereo unspecified)
Given back: 1430

###

Biological target: Peroxisome proliferator-activated receptor alpha (Homo sapiens)
Assay: Agonist activity at human PPARalpha ligand binding domain expressed in human HepG2 cells co-transfected with Gal4 by luciferase reporter gene assay relative to Wy-14,643
Format: cell-based
Provide the recorded Efficacy for the entries that follow.
Number only, in %; omit the unit.

Asked: Record lookup: for Peroxisome proliferator-activated receptor alpha (Homo sapiens), what Efficacy belongs to CCCc1ccccc1CC(Oc1ccc(Cl)cc1)C(=O)O (stereo unspecified) ?
Given back: 43

Asked: Record lookup: for Peroxisome proliferator-activated receptor alpha (Homo sapiens), what Efficacy belongs to O=C(O)C(Cc1ccc(Cl)cc1)Oc1ccc(Cl)cc1 (racemic) ?
Given back: 49

Asked: Record lookup: for Peroxisome proliferator-activated receptor alpha (Homo sapiens), what Efficacy belongs to `O=C(O)[C@H](Cc1ccc(C(F)(F)F)cc1)Oc1ccc(Cl)cc1` ?
Given back: 69

Asked: Record lookup: for Peroxisome proliferator-activated receptor alpha (Homo sapiens), what Efficacy belongs to O=C(O)C(Cc1ccccc1)Oc1ccc(Cl)c(Cl)c1 (racemic) ?
Given back: 27

Asked: Record lookup: for Peroxisome proliferator-activated receptor alpha (Homo sapiens), what Efficacy belongs to CCCc1cc(Cl)ccc1OC(Cc1ccccc1)C(=O)O (stereo unspecified) ?
Given back: 18

Asked: Record lookup: for Peroxisome proliferator-activated receptor alpha (Homo sapiens), what Efficacy belongs to O=C(O)C(Cc1ccccc1Br)Oc1ccc(Cl)cc1 (racemic) ?
Given back: 57

Asked: Record lookup: for Peroxisome proliferator-activated receptor alpha (Homo sapiens), what Efficacy belongs to Cc1ccccc1CC(Oc1ccc(Cl)cc1)C(=O)O (racemic) ?
Given back: 50

Asked: Record lookup: for Peroxisome proliferator-activated receptor alpha (Homo sapiens), what Efficacy belongs to O=C(O)C(Cc1ccccc1Cl)Oc1ccc(Cl)cc1 (racemic) ?
Given back: 44

Asked: Record lookup: for Peroxisome proliferator-activated receptor alpha (Homo sapiens), what Efficacy belongs to O=C(O)C(Cc1ccc(Br)cc1)Oc1ccc(Cl)cc1 (racemic) ?
Given back: 46

Asked: Record lookup: for Peroxisome proliferator-activated receptor alpha (Homo sapiens), what Efficacy belongs to `O=C(O)[C@H](Cc1ccccc1)Oc1ccc(Cl)cc1` ?
Given back: 48

Asked: Record lookup: for Peroxisome proliferator-activated receptor alpha (Homo sapiens), what Efficacy belongs to CN(CCOc1ccc(CC2SC(=O)NC2=O)cc1)c1ccccn1 (stereo unspecified) ?
Given back: 100
